Target: GABA-A receptor; anion channel (Rattus norvegicus) (UniProt O09028+P15431+P18506+P18508+P19969+P20236+P23574+P23576+P28471+P28473+P30191+P62813+P63079+P63138+Q91ZM7+Q9ES14)
Assay: Ratio between Ki value (acid) / Ki value (ester) was determined
Format: protein-complex assay
Rule: Ratio below 100 gives condition met, anything at or above gives condition not met.

Compound: CCOC(=O)C[C@@H]1N=C(c2ccccc2F)c2cc(Cl)ccc2NC1=O
Label value: condition not met

Compound: O=C(CC[C@@H]1N=C(c2ccccc2F)c2cc(Cl)ccc2NC1=O)OCc1ccccc1
Label value: condition not met

Compound: COC(=O)CNC1N=C(c2ccccc2Cl)c2cc(Cl)ccc2NC1=O (configuration not stated)
Label value: condition met

Compound: COC(=O)CC[C@@H]1N=C(c2ccccc2)c2cc([N+](=O)[O-])ccc2NC1=O
Label value: condition met

Compound: COC(=O)CCC[C@@H]1N=C(c2ccccc2F)c2cc(Cl)ccc2NC1=O
Label value: condition not met

Compound: COC(=O)CC[C@@H]1N=C(c2ccccc2F)c2cc(Br)ccc2NC1=O
Label value: condition not met

Compound: O=C(CC[C@@H]1N=C(c2ccccc2F)c2cc(Cl)ccc2NC1=O)OCc1ccncc1
Label value: condition not met

* * *

Reported Ki is given for each of the following compounds.
Target: GABA-A receptor; anion channel
Assay: Binding affinity to rat benzodiazepine receptor
Readout name: Ki (nM)

Compound: COC(=O)CN[C@@H]1N=C(c2ccccc2Cl)c2cc(Cl)ccc2NC1=O
Readout name: Ki
Assay result: 480

Compound: CCOC(=O)C[C@@H]1N=C(c2ccccc2F)c2cc(Cl)ccc2NC1=O
Readout name: Ki
Assay result: 45

Compound: COC(=O)CCNC1N=C(c2ccccc2Cl)c2cc(Cl)ccc2NC1=O (configuration not stated)
Readout name: Ki
Assay result: 17

Compound: O=C(CC[C@@H]1N=C(c2ccccc2F)c2cc(Cl)ccc2NC1=O)OCc1ccncc1
Readout name: Ki
Assay result: 34

Compound: O=C(C[C@H]1N=C(c2ccccc2)c2cc(Cl)ccc2NC1=O)OCc1ccccc1
Readout name: Ki
Assay result: 100000

Compound: COC(=O)CC[C@H]1N=C(c2ccccc2F)c2cc(Cl)ccc2NC1=O
Readout name: Ki
Assay result: 741

Compound: CCCCOC(=O)CC[C@@H]1N=C(c2ccccc2F)c2cc(Cl)ccc2NC1=O
Readout name: Ki
Assay result: 242

Compound: O=C(CC[C@@H]1N=C(c2ccccc2F)c2ccccc2NC1=O)OCc1ccccc1
Readout name: Ki
Assay result: 163

Compound: COC(=O)CC[C@@H]1N=C(c2ccccc2F)c2ccccc2NC1=O
Readout name: Ki
Assay result: 92

Compound: O=C(CC[C@@H]1N=C(c2ccccc2F)c2cc(Cl)ccc2NC1=O)OCc1ccccc1
Readout name: Ki
Assay result: 29

Compound: COC(=O)CC[C@@H]1N=C(c2ccccc2)c2cc([N+](=O)[O-])ccc2NC1=O
Readout name: Ki
Assay result: 118

Compound: COC(=O)CNC1N=C(c2ccccc2Cl)c2cc(Cl)ccc2NC1=O (configuration not stated)
Readout name: Ki
Assay result: 53

Compound: COC(=O)CC[C@@H]1N=C(c2ccccc2F)c2cc(Br)ccc2NC1=O
Readout name: Ki
Assay result: 3

Compound: COC(=O)CCN[C@@H]1N=C(c2ccccc2Cl)c2cc(Cl)ccc2NC1=O
Readout name: Ki
Assay result: 189

Compound: O=C(C[C@@H]1N=C(c2ccccc2F)c2cc(Cl)ccc2NC1=O)OCc1ccccc1
Readout name: Ki
Assay result: 176

Compound: O=C(C[C@@H]1N=C(c2ccccc2)c2cc(Cl)ccc2NC1=O)OCc1ccccc1
Readout name: Ki
Assay result: 1450

Compound: COC(=O)CC[C@@H]1N=C(c2ccccc2F)c2cc([N+](=O)[O-])ccc2NC1=O
Readout name: Ki
Assay result: 7

Compound: O=C(C[C@@H]1N=C(c2ccccc2F)c2cc(Cl)ccc2NC1=O)OCc1ccncc1
Readout name: Ki
Assay result: 289

Compound: COC(=O)CCN[C@H]1N=C(c2ccccc2Cl)c2cc(Cl)ccc2NC1=O
Readout name: Ki
Assay result: 3

Compound: COC(=O)C[C@@H]1N=C(c2ccccc2F)c2cc(Cl)ccc2NC1=O
Readout name: Ki
Assay result: 81

Compound: COC(=O)CN[C@H]1N=C(c2ccccc2Cl)c2cc(Cl)ccc2NC1=O
Readout name: Ki
Assay result: 23

Compound: COC(=O)CCC[C@@H]1N=C(c2ccccc2F)c2cc(Cl)ccc2NC1=O
Readout name: Ki
Assay result: 3

Compound: O=C(CC[C@@H]1N=C(c2ccccc2)c2cc([N+](=O)[O-])ccc2NC1=O)OCc1ccccc1
Readout name: Ki
Assay result: 124

Compound: CC(C)OC(=O)CC[C@@H]1N=C(c2ccccc2F)c2cc(Cl)ccc2NC1=O
Readout name: Ki
Assay result: 39

Compound: COC(=O)CC[C@@H]1N=C(c2ccccc2F)c2cc(Cl)ccc2NC1=O
Readout name: Ki
Assay result: 7

Compound: Cc1ncc2n1-c1ccc(Cl)cc1C(c1ccccc1F)=NC2
Readout name: Ki
Assay result: 2

Compound: O=C(CC[C@@H]1N=C(c2ccccc2)c2cc(Cl)ccc2NC1=O)OCc1ccccc1
Readout name: Ki
Assay result: 200

Source of measurements: ChEMBL document CHEMBL1134955
